# Test system: Candida albicans CCH 442
# assayOverview: MIC by agar dilution method
# Assay type: cell-based
# measurementContext: CCH442; Table 6c, 3rd value column (head printed II); III Candida albicans CCH 442; agar dilution; read-out: MIC II
recordedEndpoint: MIC (mg/L)

Past entries and their recorded results:
smilesRepr | unitTag | MIC
CCCCC/C=C/C=C/[C@@H](O)C/C=C/C=C/C(=O)O[C@@H]1[C@@H](O)[C@H](c2c(O)cc(O)cc2CO)O[C@H](CO)[C@H]1O[C@@H]1O[C@H](COC(=O)c2cccc3ccccc23)[C@H](O)[C@H](O)[C@H]1O[C@@H]1O[C@H](CO)[C@H](O)[C@H](O)[C@H]1O | mg/L | 3.12
CCCCC/C=C/C=C/[C@@H](O)C/C=C/C=C/C(=O)O[C@@H]1[C@@H](O)[C@H](c2c(O)cc(O)cc2CO)O[C@H](CO)[C@H]1O[C@@H]1O[C@H](COC(=O)c2ccc(-c3ccc(CC)cc3)cc2)[C@H](O)[C@H](O)[C@H]1O[C@@H]1O[C@H](CO)[C@H](O)[C@H](O)[C@H]1O | mg/L | 0.78
CCCCC/C=C/C=C/[C@@H](O)C/C=C/C=C/C(=O)O[C@@H]1[C@@H](O)[C@H](c2c(O)cc(O)cc2CO)O[C@H](CO)[C@H]1O[C@@H]1O[C@H](COC(=O)/C=C/c2cc(C(C)(C)C)cc(C(C)(C)C)c2)[C@H](O)[C@H](O)[C@H]1O[C@@H]1O[C@H](CO)[C@H](O)[C@H](O)[C@H]1O | mg/L | 3.12
CCCCC/C=C/C=C/[C@@H](O)C/C=C/C=C/C(=O)O[C@@H]1[C@@H](O)[C@H](c2c(O)cc(O)cc2CO)O[C@H](CO)[C@H]1O[C@@H]1O[C@H](COC(=O)c2ccc(-c3ccc(OCCC)cc3)cc2)[C@H](O)[C@H](O)[C@H]1O[C@@H]1O[C@H](CO)[C@H](O)[C@H](O)[C@H]1O | mg/L | 0.78

a: CCCCC/C=C/C=C/[C@@H](O)C/C=C/C=C/C(=O)O[C@@H]1[C@@H](O)[C@H](c2c(O)cc(O)cc2CO)O[C@H](CO)[C@H]1O[C@@H]1O[C@H](COC(=O)c2ccc3ccccc3c2)[C@H](O)[C@H](O)[C@H]1O[C@@H]1O[C@H](CO)[C@H](O)[C@H](O)[C@H]1O
b: CCCCC/C=C/C=C/[C@@H](O)C/C=C/C=C/C(=O)O[C@@H]1[C@@H](O)[C@H](c2c(O)cc(O)cc2CO)O[C@H](CO)[C@H]1O[C@@H]1O[C@H](COC(=O)Cc2ccc3ccccc3c2)[C@H](O)[C@H](O)[C@H]1O[C@@H]1O[C@H](CO)[C@H](O)[C@H](O)[C@H]1O
c: CCCCC/C=C/C=C/[C@@H](O)C/C=C/C=C/C(=O)O[C@@H]1[C@@H](O)[C@H](c2c(O)cc(O)cc2CO)O[C@H](CO)[C@H]1O[C@@H]1O[C@H](COC(=O)CCCCCCCCC)[C@H](O)[C@H](O)[C@H]1O[C@@H]1O[C@H](CO)[C@H](O)[C@H](O)[C@H]1O
Ask: Parameters: sort_field (MIC), sort_dir (desc). Kindly provide the labels arranged according to the requested ordering.
Reply: c, b, a

Reference for the values: patent US5773421A
